Value source: patent US20240083888A1

# assayRemarks: Pharmacokinetic experiment in BALB/c mice
# Type: in vivo
# details: male, mouse, plasma, PO, 5 mg/kg
Measured Tmax of individual entries

# compound, Tmax / h
records = [
    ("N#Cc1ccc2c(c1)COc1cc(C[C@@H](C#N)NC(=O)[C@@H]3CNCCCO3)c(F)cc1-2 [Compound 14]", 0.5),
    ("Cn1c(=O)oc2ccc(-c3ccc(C[C@@H](C#N)NC(=O)[C@@H]4CNCCCO4)cc3)cc21 [AZD7986, reference compound]", 1.5),
]

---

Measured Vd of individual entries
# assayRemarks: Pharmacokinetic experiment in BALB/c mice
# Format: in vivo
# details: male, mouse, plasma, IV, 2 mg/kg, read-out: Vdss

# compound, unitsSymbol, Vd
records = [
    ("Cn1c(=O)oc2ccc(-c3ccc(C[C@@H](C#N)NC(=O)[C@@H]4CNCCCO4)cc3)cc21 [AZD7986, reference compound]", "L/kg", 2.34),
    ("N#Cc1ccc2c(c1)COc1cc(C[C@@H](C#N)NC(=O)[C@@H]3CNCCCO3)c(F)cc1-2", "L/kg", 1.75),
]
